Entries and their pIC50 values follow.
molecular target: CD80-CD 28 interaction (Homo sapiens); assay: cell free Homogenous Time Resolved Fluorescence (HTRF) assay, inhibition of the CD80-CD28 interaction; type: binding; settings: CD28-mouse Fc fusion protein and CD80 mouse Fab fragment (C215) fusion protein, 4 hours at room temperature, concentration series 100 μM-1.7 nM
Sequence (P33681 35-242 limits assumed): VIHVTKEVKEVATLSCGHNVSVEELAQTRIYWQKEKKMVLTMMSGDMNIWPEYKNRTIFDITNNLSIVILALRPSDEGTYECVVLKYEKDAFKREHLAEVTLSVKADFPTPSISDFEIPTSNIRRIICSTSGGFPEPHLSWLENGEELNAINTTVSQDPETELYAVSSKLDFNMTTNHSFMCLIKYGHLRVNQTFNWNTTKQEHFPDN
pIC50: −log10 of the molar value.
assay.endpoint: pIC50

compound_string=O=C(O)c1ccc(-n2nc3c4ccccc4[nH]c(-c4cccc([N+](=O)[O-])c4)c-3c2=O)cc1 measured_target="CD80-CD 28 interaction (Homo sapiens)" reported_measurement=5.07
compound_string=COc1ccc(-c2[nH]c3ccccc3c3nn(-c4cccc(C(=O)O)c4)c(=O)c2-3)cc1 measured_target="CD80-CD 28 interaction (Homo sapiens)" reported_measurement=5.34
compound_string=COc1ccc(-c2[nH]c3ccccc3c3nn(-c4ccc(C(=O)O)cc4)c(=O)c2-3)cc1 measured_target="CD80-CD 28 interaction (Homo sapiens)" reported_measurement=5.47
